Target: human SGLT1 (Homo sapiens (Human), UniProt P13866)
Sequence (P13866 whole entry): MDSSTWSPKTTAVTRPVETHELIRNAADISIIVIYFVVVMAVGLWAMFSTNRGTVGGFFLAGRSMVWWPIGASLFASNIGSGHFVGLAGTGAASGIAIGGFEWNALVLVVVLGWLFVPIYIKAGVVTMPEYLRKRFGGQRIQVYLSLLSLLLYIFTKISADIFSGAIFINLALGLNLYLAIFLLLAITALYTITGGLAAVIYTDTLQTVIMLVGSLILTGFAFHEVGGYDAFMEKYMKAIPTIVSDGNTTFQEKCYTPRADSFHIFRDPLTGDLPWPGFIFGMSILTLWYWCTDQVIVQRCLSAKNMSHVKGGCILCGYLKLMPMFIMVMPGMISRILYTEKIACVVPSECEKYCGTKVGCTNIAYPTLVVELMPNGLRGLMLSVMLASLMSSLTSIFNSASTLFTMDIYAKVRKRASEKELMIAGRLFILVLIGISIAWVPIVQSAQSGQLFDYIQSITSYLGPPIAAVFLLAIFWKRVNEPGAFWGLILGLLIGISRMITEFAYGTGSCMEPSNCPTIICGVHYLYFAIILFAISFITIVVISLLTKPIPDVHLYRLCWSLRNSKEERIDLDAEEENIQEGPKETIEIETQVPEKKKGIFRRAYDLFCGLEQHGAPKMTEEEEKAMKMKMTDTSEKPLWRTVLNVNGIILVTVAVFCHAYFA
Experiment: SGLT1 inhibitory activity: 14C-AMG uptake into CHO-K1 cell line stably expressing human SGLT1
Type: cell-based
Settings: 14C-AMG uptake, CHO-K1 cells expressing human SGLT1
The following compounds are listed with their measured IC50 values.
API: value field is a number in µM; no unit string.

O=C1C[C@@H](C(=O)Nc2cc(C3CCCCC3)n(-c3ccccc3)n2)CN1 : 0.65
Cc1ccc(-n2nc(NC(=O)[C@H]3CNC(=O)[C@@H]3C)cc2-c2cccc(C(F)(F)F)c2)cc1 : 0.0067
CC(C)C(F)(F)c1cccc(-c2cc(NC(=O)[C@H]3CNC(=O)C3)nn2-c2ccccc2)c1 : 0.0015
O=C1C[C@@H](C(=O)Nc2cc(-c3cccc(OC(F)(F)F)c3)n(CCC3CCCCC3)n2)CN1 : 0.017
CC(F)(F)c1cccc(-c2cc(NC(=O)[C@H]3CNC(=O)C3)nn2-c2ccccc2)c1 : 0.022

Measured IC50, CCc1cccc(-c2cc(NC(=O)[C@@H]3CNC(=O)C3)nn2-c2ccccc2)c1 : 0.034

Measured IC50, C[C@H]1C(=O)NC[C@@H]1C(=O)Nc1cc(-c2cccc(OCC(F)(F)F)c2)n(-c2ccccc2Cl)n1 : 0.0014

Measured IC50, CCCc1cccc(-c2cc(NC(=O)[C@@H]3CNC(=O)C3)nn2-c2cccc(C)c2)c1 : 0.002

Measured IC50, CCCc1cccc(-c2cc(NC(=O)[C@H]3CNC(=O)C3)nn2CC(F)(F)F)c1 : 0.21

Measured IC50, CCC(F)(F)c1cccc(-c2cc(NC(=O)C3CCC(=O)NC3)nn2-c2ccccc2)c1 (single isomer, unassigned) : 0.019

Measured IC50, O=C1CCC(C(=O)Nc2cc(-c3cccc(OC(F)(F)F)c3)n(-c3ccccc3)n2)CN1 (single isomer, unassigned) : 0.0077

Measured IC50, CC(C)(C)c1cccc(-c2cc(NC(=O)[C@H]3CNC(=O)C3)nn2CCc2ccccc2)c1 : 0.065

Measured IC50, CC1(C)CCCC(c2cc(NC(=O)[C@H]3CNC(=O)C3)nn2-c2ccccc2)C1 (single isomer, unassigned) [Example 88] : 0.017

Measured IC50, O=C1C[C@H](C(=O)Nc2cc(-c3cccc(C(F)(F)F)c3)n(-c3ccccc3)n2)CN1 : 0.052

Measured IC50, C[C@H]1C(=O)NC[C@@H]1C(=O)Nc1cc(-c2cccc(OC(F)(F)F)c2)n(C2CCC(F)(F)CC2)n1 : 0.067

Measured IC50, CCC(F)(F)c1cccc(-c2cc(NC(=O)[C@H]3CNC(=O)C3)nn2-c2cccc(F)c2)c1 : 0.0043

Measured IC50, CC(C)C(F)(F)c1cccc(-c2cc(NC(=O)[C@H]3CNC(=O)C3)nn2-c2ccc(Cl)cc2)c1 : 0.0034

Measured IC50, CCOc1cccc(-c2cc(NC(=O)[C@H]3CNC(=O)C3)nn2-c2ccccc2)c1 : 0.095

Measured IC50, O=C1C[C@@H](C(=O)Nc2cc(-c3cccc(OC(F)(F)F)c3)n(C3CCC(F)(F)CC3)n2)CN1 : 0.18

Measured IC50, C[C@H]1C(=O)NC[C@@H]1C(=O)Nc1cc(-c2cccc(OC(F)(F)F)c2)n(-c2ccc(Cl)cc2)n1 : 0.0093

====

Molecular target: human SGLT1 (Homo sapiens (Human))
Test: SGLT1 inhibitory activity: 14C-AMG uptake into CHO-K1 cell line stably expressing human SGLT1
Type: cell-based
Conditions: 14C-AMG uptake, CHO-K1 cells stably expressing human SGLT1
pIC50: −log10 of the molar value.
The label depends only on pIC50: class 1 if it is at least 8, class 0 if it is smaller.

Below, 5 molecules whose answers are already recorded.
CC(C)(C)/C=C/c1cccc(-c2cc(NC(=O)[C@@H]3CNC(=O)C3)nn2-c2ccccc2)c1 : class 0
O=C1C[C@H](C(=O)Nc2cc(-c3cccc(OCCCC(F)(F)F)c3)n(-c3ccccc3)n2)CN1 : class 0
O=C1C[C@H](C(=O)Nc2cc(-c3cccc(COCC(F)(F)F)c3)n(-c3cccc(OC4COC4)c3)n2)CN1 : class 0
CCCc1cccc(-c2cc(NC(=O)[C@@H]3CNC(=O)C3)nn2-c2cccc(CCC)c2)c1 : class 1
CC(C)(C)OCc1cccc(-c2cc(NC(=O)C3CCC(=O)NC3)nn2-c2ccccc2)c1 (single isomer, unassigned) : class 0

In plain terms: is recorded pIC50 at least 8 for CCCc1cccc(-c2cc(NC(=O)[C@@H]3CNC(=O)C3)nn2-c2cccc(COC(C)C)c2)c1 ?
class 1

In plain terms: is recorded pIC50 at least 8 for C[C@@H](OCc1cccc(-c2cc(NC(=O)[C@@H]3CNC(=O)C3)nn2-c2ccccc2Cl)c1)C(F)(F)F ?
class 1

====

Target: human SGLT1 (Homo sapiens (Human), UniProt P13866)
Test: SGLT1 inhibitory activity: 14C-AMG uptake into CHO-K1 cell line stably expressing human SGLT1
Assay type: cell-based
Conditions: 14C-AMG uptake, CHO-K1 cells expressing human SGLT1
The following compounds are listed with their measured pIC50 values.
// scale note: pIC50 = -log10(conc_M); give the bare number

Below: 3 compounds and their reported pIC50.
C[C@H]1C(=O)NC[C@@H]1C(=O)Nc1cc(-c2cccc(C(F)(F)F)c2)n(-c2cccc(F)c2)n1 [Example 209] : 8.04
CCCCc1cccc(-c2cc(NC(=O)[C@@H]3CNC(=O)C3)nn2-c2ccccc2)c1 [Example 46] : 8.43
C[C@H]1C(=O)NC[C@@H]1C(=O)Nc1cc(-c2cccc(OC(F)(F)F)c2)n(CCC(F)(F)F)n1 [Example 191] : 7.27

Measured pIC50, O=C1C[C@@H](C(=O)Nc2cc(-c3cccc(OC(F)(F)F)c3)n(-c3cccc(F)c3)n2)CN1 [Example 157] : 7.89

Measured pIC50, Cc1ccc(-n2nc(NC(=O)[C@H]3CNC(=O)[C@@H]3C)cc2-c2cccc(OC(F)(F)F)c2)cc1 [Example 234] : 8.13

Measured pIC50, O=C1C[C@@H](C(=O)Nc2cc(-c3cccc(C(F)(F)F)c3)n(-c3ccc(F)cc3)n2)CN1 [Example 204] : 7.74

Measured pIC50, O=C1C[C@@H](C(=O)Nc2cc(-c3cccc(C4CC4)c3)n(-c3ccccc3)n2)CN1 [Example 92] : 7.60

Measured pIC50, CCCc1cccc(-c2cc(NC(=O)[C@@H]3CNC(=O)N3)nn2-c2ccccc2)c1 [Example 97] : 8.00

Measured pIC50, O=C1C[C@@H](C(=O)Nc2cc(C3CCCCCC3)n(-c3ccccc3)n2)CN1 [Example 62] : 6.33

====

Molecular target: human SGLT1 (Homo sapiens (Human), UniProt P13866)
Assay: SGLT1 inhibitory activity: 14C-AMG uptake into CHO-K1 cell line stably expressing human SGLT1
Assay type: cell-based
Conditions: 14C-AMG uptake, CHO-K1 cells expressing human SGLT1
pIC50: −log10 of the molar value.
The label depends only on pIC50: true if it is at least 8, false if it is smaller.

Below, 2 compounds whose answers are already recorded.
CCCc1cccc(-c2cc(NC(=O)[C@H]3CNC(=O)C3)nn2-c2ccccc2C)c1 : true
Cc1ccccc1-n1nc(NC(=O)[C@H]2CNC(=O)C2)cc1-c1cccc(OC(F)(F)F)c1 : true

In plain terms: is recorded pIC50 at least 8 for CCCc1cccc(-c2cc(NC(=O)C3CC(=O)NC3C)nn2-c2ccccc2)c1 (single isomer, unassigned) [Example 19] ?
false

In plain terms: is recorded pIC50 at least 8 for CC(C)c1cccc(-c2cc(NC(=O)[C@@H]3CNC(=O)C3)nn2-c2ccccc2)c1 ?
false

In plain terms: is recorded pIC50 at least 8 for C[C@H]1C(=O)NC[C@@H]1C(=O)Nc1cc(-c2cccc(C(C)(C)C)c2)n(-c2ccccc2Cl)n1 ?
true

In plain terms: is recorded pIC50 at least 8 for CC(F)(F)c1cccc(-c2cc(NC(=O)[C@H]3CNC(=O)C3)nn2-c2ccc(Cl)cc2)c1 ?
false

In plain terms: is recorded pIC50 at least 8 for CC(C)(C)c1cccc(-c2cc(NC(=O)[C@@H]3CNC(=O)C3)nn2-c2ccccc2)c1 ?
true

In plain terms: is recorded pIC50 at least 8 for CCCc1cccc(-c2cc(NC(=O)C3CNC(=O)C3)nn2CC)c1 (racemic) ?
false

In plain terms: is recorded pIC50 at least 8 for CCCc1cccc(-c2cc(NC(=O)C3CNC(=O)C3)nn2-c2ccccc2)c1 (racemic) ?
true

In plain terms: is recorded pIC50 at least 8 for CC(C)(C)c1cccc(-c2cc(NC(=O)[C@H]3CNC(=O)C3)nn2C2CCOCC2)c1 ?
false

In plain terms: is recorded pIC50 at least 8 for CCCc1cccc(-c2cc(NC(=O)[C@@H]3CNC(=O)C3)nn2-c2ccccc2Cl)c1 ?
true
